# Tested on: SB.msgc-1
# protocolText: viability at highest tested concentration (MAXR) relative to DMSO; higher = less cytotoxic
# testSettings: SB.msgc-1 (sporadic gastric cancer)
measurementLabel: viability (%)

[
  {
    "compound": "COc1cc([C@@H]2c3cc4c(cc3[C@@H](O[C@@H]3O[C@@H]5CO[C@@H](C)O[C@H]5[C@H](O)[C@H]3O)[C@H]3COC(=O)[C@H]23)OCO4)cc(OC)c1O [Etoposide] (top concentration 46.0829 µM)",
    "unitOfMeasure": "%",
    "measuredValue": 41.2
  },
  {
    "compound": "Cc1ccc2c(=O)c3cccc(CC(=O)O)c3oc2c1C [Vadimezan] (top concentration 46.0829 µM)",
    "unitOfMeasure": "%",
    "measuredValue": 81.5
  },
  {
    "compound": "Cc1ccc(NC(=O)c2ccc(CN3CCN(C)CC3)cc2)cc1Nc1nccc(-c2cccnc2)n1 [Imatinib] (top concentration 46.0829 µM)",
    "unitOfMeasure": "%",
    "measuredValue": 80.2
  },
  {
    "compound": "OC(=O)C1=CC=C(NC2=NC3=C(C\\N=C(/C4=CC(=CC=C34)Cl)C5=C(F)C=CC=C5F)C=N2)C=C1 [MLN-8054] (top concentration 46.0829 µM)",
    "unitOfMeasure": "%",
    "measuredValue": 50.9
  },
  {
    "compound": "C[S+](=O)([O-])N1CCN(Cc2cc3nc(-c4cccc5[nH]ncc45)nc(N4CCOCC4)c3s2)CC1 [GDC-0941] (top concentration 46.0829 µM)",
    "unitOfMeasure": "%",
    "measuredValue": 48.3
  }
]

---

# Tested on: SB.msgc-1
# protocolText: viability at highest tested concentration (MAXR) relative to DMSO; higher = less cytotoxic
# testSettings: SB.msgc-1 (sporadic gastric cancer)
Listed here: items and their measured viability.
measurementLabel: viability (%)

[
  {
    "molecule": "COc1cc2c(cc1OC)CC(=O)N(CCCN(C)C[C@H]1Cc3cc(OC)c(OC)cc31)CC2.Cl [Ivabradine hydrochloride] (top concentration 46.0829 µM)",
    "unitOfMeasure": "%",
    "measuredValue": 70.4
  },
  {
    "molecule": "CNC(=O)c1c(-c2ccc(F)cc2)oc2cc(N(CCO)[S+](C)(=O)[O-])c(C3CC3)cc12 [Nesbuvir] (top concentration 46.0829 µM)",
    "unitOfMeasure": "%",
    "measuredValue": 64.6
  },
  {
    "molecule": "CC[C@H](NC1=C2N=C[NH]C2=NC=N1)C/3=N/C4=C(C(=CC=C4)F)C(=O)N3C5=CC=CC=C5 [CAL-101] (top concentration 46.0829 µM)",
    "unitOfMeasure": "%",
    "measuredValue": 28.5
  },
  {
    "molecule": "OCCNC1CCCc2c1[nH]c1ccc(-c3ccccc3)cc21 (stereo unspecified) [CASIN] (top concentration 46.0829 µM)",
    "unitOfMeasure": "%",
    "measuredValue": 28.3
  },
  {
    "molecule": "CCC(C)CCCCC(=O)N[C@@H](CCN)C(=O)NC(C(=O)N[C@H](CCN)C(=O)N[C@@H]1CCNC(=O)C([C@@H](C)O)NC(=O)[C@@H](CCN)NC(=O)[C@@H](CCN)NC(=O)[C@@H](CC(C)C)NC(=O)[C@H](Cc2ccccc2)NC(=O)[C@H](CCN)NC1=O)[C@@H](C)O (stereo partly specified) [Polymyxin B sulphate] (top concentration 46.0829 µM)",
    "unitOfMeasure": "%",
    "measuredValue": 102
  },
  {
    "molecule": "O=[S+]([O-])(CCSSCC[S+](=O)([O-])[O][Na])[O][Na] [Mesna disulfide] (top concentration 46.0829 µM)",
    "unitOfMeasure": "%",
    "measuredValue": 117
  }
]

---

Entries and their area under the dose-response curve
# System: SB.mhdgc-1
# protocolText: area under the dose-response curve of % viability (trapezoidal, 11 doses) (% viability x log10 concentration); higher = less cytotoxic
# testSettings: SB.mhdgc-1 (hereditary c.1380delA CDH1 gastric cancer)
Where a name gives a salt, the structure may show the parent alone.

[
  {
    "molecule": "Oc1cccc(-c2nc(N3CCOCC3)c3oc4ncccc4c3n2)c1 [PI-103] (top concentration 92.1659 µM)",
    "area under the dose-response curve": 308
  },
  {
    "molecule": "CC[C@]1(O)C[C@@H]2CN(CCc3c([nH]c4ccccc34)[C@@](C(=O)OC)(c3cc4c(cc3OC)N(C)[C@H]3[C@@](O)(C(N)=O)[C@H](O)[C@]5(CC)C=CCN6CC[C@]43[C@@H]65)C2)C1 [Vindesine sulfate] (top concentration 46.0829 µM)",
    "area under the dose-response curve": 225
  },
  {
    "molecule": "CC(=O)NC(CS)C(=O)O (centres undefined) [Acetylcysteine] (top concentration 46.0829 µM)",
    "area under the dose-response curve": 428
  },
  {
    "molecule": "CCNC(=O)C[C@@H]1\\N=C(C2=CC=C(Cl)C=C2)/C3=C(C=CC(=C3)OC)[N]4C(=NN=C14)C [I-BET762] (top concentration 46.0829 µM)",
    "area under the dose-response curve": 478
  }
]

---

# Test system: SB.mhdgc-1
# protocolText: viability at highest tested concentration (MAXR) relative to DMSO; higher = less cytotoxic
# testSettings: SB.mhdgc-1 (hereditary c.1380delA CDH1 gastric cancer)
Where a name gives a salt, the structure may show the parent alone.
// reported viability for each item listed
measurementLabel: viability (%)

[
  {
    "compound": "COc1cccc2c1C(=O)c1c(O)c3c(c(O)c1C2=O)C[C@@](O)(C(=O)CO)C[C@@H]3O[C@H]1C[C@H](N)[C@@H](O)[C@H](C)O1 [Epirubicin hydrochloride] (top concentration 46.0829 µM)",
    "measuredValue": 24.7
  },
  {
    "compound": "CN1CC(=O)\\N=C1\\NC(=O)NC2=CC(=CC=C2)Cl [Fenobam] (top concentration 46.0829 µM)",
    "measuredValue": 37
  },
  {
    "compound": "Cc1cc(Nc2cc(N3CCN(C)CC3)nc(Sc3ccc(NC(=O)C4CC4)cc3)n2)[nH]n1 [Tozasertib] (top concentration 46.0829 µM)",
    "measuredValue": 44
  },
  {
    "compound": "COc1cc(C[C@@H](CO)[C@H](CO)Cc2ccc(O)c(OC)c2)ccc1O [Secoisolariciresinol] (top concentration 46.0829 µM)",
    "measuredValue": 50.9
  },
  {
    "compound": "C[C@@H](CN1CC(=O)NC(=O)C1)N1CC(=O)NC(=O)C1 [Dexrazoxane hydrochloride] (top concentration 46.0829 µM)",
    "measuredValue": 33.7
  },
  {
    "compound": "CC/1=C(/C(CC(=O)N1)C2=CC=C(C=C2)C(F)(F)F)C(=O)NC3=C(F)C=C4[NH]N=CC4=C3 (configuration not stated) (top concentration 46.0829 µM)",
    "measuredValue": 67.9
  },
  {
    "compound": "CC[C@H]1CN2CCc3cc(OC)c(OC)cc3[C@@H]2C[C@@H]1C[C@H]1NCCc2cc(OC)c(OC)cc21 [Emetine] (top concentration 46.0829 µM)",
    "measuredValue": 25.4
  },
  {
    "compound": "CC(O)(C[S+](=O)([O-])c1ccc(F)cc1)C(=O)Nc1ccc(C#N)c(C(F)(F)F)c1 (configuration not stated) [Bicalutamide] (top concentration 46.0829 µM)",
    "measuredValue": 2.85
  },
  {
    "compound": "COc1cc(F)c(C(C)C)cc1-c1ccc(C(F)(F)F)cc1CN1C(=O)O[C@H](c2cc(C(F)(F)F)cc(C(F)(F)F)c2)[C@@H]1C [Anacetrapib] (top concentration 46.0829 µM)",
    "measuredValue": 54.6
  },
  {
    "compound": "C[C@]12CC(=O)[C@H]3[C@@H](CC\\C4=C\\C(=O)\\C=C/[C@]34C)[C@@H]1CC[C@]2(O)C(=O)CO (top concentration 23.0415 µM)",
    "measuredValue": 92.6
  },
  {
    "compound": "Cc1[nH]c(/C=C2\\C(=O)Nc3ccccc32)c(C)c1CCC(=O)O [Orantinib] (top concentration 46.0829 µM)",
    "measuredValue": 49.1
  },
  {
    "compound": "COC(=O)[C@H](c1ccccc1Cl)N1CCc2sccc2C1 [Clopidogrel bisulfate] (top concentration 46.0829 µM)",
    "measuredValue": 82
  }
]

---

# System: SB.mhdgc-1
# protocolText: viability at highest tested concentration (MAXR) relative to DMSO; higher = less cytotoxic
# testSettings: SB.mhdgc-1 (hereditary c.1380delA CDH1 gastric cancer)
Counter-ions that a name gives are not always drawn.
Consider the following compounds and their measured viability readings.

[
  {
    "compound": "Clc1ccccc1C(c1ccccc1)(c1ccccc1)n1ccnc1 [Clotrimazole] (top concentration 46.0829 µM)",
    "viability [%]": 72.4
  },
  {
    "compound": "CNC(=O)c1cc(COc2nnc(Nc3ccc(Cl)cc3)c3ccoc23)ccn1 [Telatinib] (top concentration 46.0829 µM)",
    "viability [%]": 55.6
  },
  {
    "compound": "CCN1CCCC1CNC(=O)c1cc(S(=O)(=O)CC)c(N)cc1OC (stereo unspecified) [Amisulpride] (top concentration 46.0829 µM)",
    "viability [%]": 115
  },
  {
    "compound": "CN1CCC[C@@H]1CCO[C@](C)(c1ccccc1)c1ccc(Cl)cc1 [Clemastine fumarate] (top concentration 46.0829 µM)",
    "viability [%]": 15.4
  },
  {
    "compound": "CCOC(=O)[C@H](CCc1ccccc1)N[C@@H](C)C(=O)N1CCC[C@H]1C(=O)O [Enalapril maleate] (top concentration 46.0829 µM)",
    "viability [%]": 73
  },
  {
    "compound": "C[C@H]1C[C@H]2[C@@H]3CC[C@](O)(C(=O)CO)[C@@]3(C)C[C@H](O)[C@@H]2[C@@]\\4(C)/C=C\\C(=O)\\C=C14 [Methylprednisolone] (top concentration 46.0829 µM)",
    "viability [%]": 105
  }
]

Sourced from the supplement of paper PMC5412046
